Origin of values: paper PMC6018746

- Test system: panel of 240 cancer cell lines
- assayProtocol: 10-day growth/death assay (Eurofins panel)
- Assay type: cell-based
- testConditions: Homo sapiens, SW480, SW480; read-out: gIC50
propertyName: IC50 (nM)
Give the value, in units of nM, as a plain number.

-- ask What measured IC50 goes with O=C(NC[C@H](O)CN1CCc2ccccc2C1)c1ccnc(NC2CCC2)c1 ?
-- reply 413

----------
- Test system: panel of hematologic and solid cancer lines
- assayProtocol: 6-day in vitro growth/death assay
- Type: cell-based, human
- testConditions: Homo sapiens, Hs 445, Hs445; read-out: gIC50
propertyName: pIC50
Scale: pIC50 equals -log10([C]), with [C] in mol/L.

-- ask Enter reported pIC50 observed with panel of hematologic and solid cancer lines for O=C(NC[C@H](O)CN1CCc2ccccc2C1)c1ccnc(NC2CCC2)c1
-- reply 6.01

----------
- System: panel of hematologic and solid cancer lines
- assayProtocol: 6-day in vitro growth/death assay
- Type: cell-based, human
- testConditions: Homo sapiens, COR-L105, COR-L105; read-out: gIC50
propertyName: IC50

-- ask Enter reported IC50 observed with panel of hematologic and solid cancer lines for O=C(NC[C@H](O)CN1CCc2ccccc2C1)c1ccnc(NC2CCC2)c1 [GSK3203591]
-- reply > 29.3 µM

----------
- Test system: panel of 240 cancer cell lines
- assayProtocol: 10-day growth/death assay (Eurofins panel)
- Type: cell-based
- testConditions: Homo sapiens, Hs 695T; read-out: gIC50
propertyName: pIC50
Scale: pIC50 equals -log10([C]), with [C] in mol/L.

-- ask What measured pIC50 goes with O=C(NC[C@H](O)CN1CCc2ccccc2C1)c1ccnc(NC2CCC2)c1 [GSK3203591] ?
-- reply 6.22

----------
- System: panel of 240 cancer cell lines
- assayProtocol: 10-day growth/death assay (Eurofins panel)
- Type: cell-based
- testConditions: Homo sapiens, HEC-1-A; read-out: gIC50
propertyName: IC50 (nM)
Give the value, in units of nM, as a plain number.

-- ask What measured IC50 goes with O=C(NC[C@H](O)CN1CCc2ccccc2C1)c1ccnc(NC2CCC2)c1 ?
-- reply 2440

----------
- Tested on: panel of hematologic and solid cancer lines
- assayProtocol: 6-day in vitro growth/death assay
- Assay type: cell-based, human
- testConditions: Homo sapiens, MOLM-13, MOLM-13; read-out: gIC50
propertyName: pIC50
Scale: pIC50 equals -log10([C]), with [C] in mol/L.

-- ask What measured pIC50 goes with O=C(NC[C@H](O)CN1CCc2ccccc2C1)c1ccnc(NC2CCC2)c1 ?
-- reply 7.06

----------
- Test system: panel of hematologic and solid cancer lines
- assayProtocol: 6-day in vitro growth/death assay
- Type: cell-based, human
- testConditions: Homo sapiens, CHP-212, CHP-212; read-out: gIC50
propertyName: pIC50
Scale: pIC50 equals -log10([C]), with [C] in mol/L.

-- ask What measured pIC50 goes with O=C(NC[C@H](O)CN1CCc2ccccc2C1)c1ccnc(NC2CCC2)c1 ?
-- reply 7.79

----------
- System: panel of 240 cancer cell lines
- assayProtocol: 10-day growth/death assay (Eurofins panel)
- Type: cell-based
- testConditions: Homo sapiens, NCI-H596, NCI-H596; read-out: gIC50
propertyName: pIC50
Scale: pIC50 equals -log10([C]), with [C] in mol/L.

-- ask What measured pIC50 goes with O=C(NC[C@H](O)CN1CCc2ccccc2C1)c1ccnc(NC2CCC2)c1 ?
-- reply 6.73

----------
- Tested on: panel of hematologic and solid cancer lines
- assayProtocol: 6-day in vitro growth/death assay
- Format: cell-based, human
- testConditions: Homo sapiens, DBTRG-05MG, DBTRG05MG; read-out: gIC50
propertyName: IC50

-- ask What measured IC50 goes with O=C(NC[C@H](O)CN1CCc2ccccc2C1)c1ccnc(NC2CCC2)c1 ?
-- reply > 29.3 µM

----------
- Tested on: panel of hematologic and solid cancer lines
- assayProtocol: 6-day in vitro growth/death assay
- Assay type: cell-based, human
- testConditions: Homo sapiens, YH13; read-out: gIC50
pIC50: −log10 of the molar value.
propertyName: pIC50

-- ask What measured pIC50 goes with O=C(NC[C@H](O)CN1CCc2ccccc2C1)c1ccnc(NC2CCC2)c1 [GSK3203591] ?
-- reply < 4.53

----------
- Tested on: panel of 240 cancer cell lines
- assayProtocol: 10-day growth/death assay (Eurofins panel)
- Format: cell-based
- testConditions: Homo sapiens, HCT-116, HCT-116; read-out: gIC50
propertyName: pIC50
Scale: pIC50 equals -log10([C]), with [C] in mol/L.

-- ask Enter reported pIC50 observed with panel of 240 cancer cell lines for O=C(NC[C@H](O)CN1CCc2ccccc2C1)c1ccnc(NC2CCC2)c1 [GSK3203591]
-- reply 6.78

----------
- System: panel of 240 cancer cell lines
- assayProtocol: 10-day growth/death assay (Eurofins panel)
- Assay type: cell-based
- testConditions: Homo sapiens, COLO-829, COLO 829; read-out: gIC50
propertyName: IC50 (nM)
Give the value, in units of nM, as a plain number.

-- ask What measured IC50 goes with O=C(NC[C@H](O)CN1CCc2ccccc2C1)c1ccnc(NC2CCC2)c1 [GSK3203591] ?
-- reply 54.4

----------
- Test system: panel of hematologic and solid cancer lines
- assayProtocol: 6-day in vitro growth/death assay
- Assay type: cell-based, human
- testConditions: 5637; read-out: gIC50
propertyName: pIC50
Scale: pIC50 equals -log10([C]), with [C] in mol/L.

| smilesData | pIC50 |
| --- | --- |
| CC(=O)N1CCC(Nc2cc(C(=O)NC[C@H](O)CN3CCc4ccccc4C3)ncn2)CC1 | 7.16 |

-- ask What measured pIC50 goes with O=C(NC[C@H](O)CN1CCc2ccccc2C1)c1ccnc(NC2CCC2)c1 ?
-- reply 6.84

----------
- Tested on: panel of hematologic and solid cancer lines
- assayProtocol: 6-day in vitro growth/death assay
- Format: cell-based, human
- testConditions: Homo sapiens, BC-3C; read-out: gIC50
propertyName: pIC50
Scale: pIC50 equals -log10([C]), with [C] in mol/L.

-- ask What measured pIC50 goes with O=C(NC[C@H](O)CN1CCc2ccccc2C1)c1ccnc(NC2CCC2)c1 [GSK3203591] ?
-- reply 6.39

----------
- System: panel of 240 cancer cell lines
- assayProtocol: 10-day growth/death assay (Eurofins panel)
- Format: cell-based
- testConditions: Homo sapiens, BT-474, BT474; read-out: gIC50
propertyName: IC50 (nM)
Give the value, in units of nM, as a plain number.

-- ask What measured IC50 goes with O=C(NC[C@H](O)CN1CCc2ccccc2C1)c1ccnc(NC2CCC2)c1 ?
-- reply 172

----------
- System: panel of 240 cancer cell lines
- assayProtocol: 10-day growth/death assay (Eurofins panel)
- Format: cell-based
- testConditions: Homo sapiens, HT; read-out: gIC50
propertyName: IC50 (nM)
Give the value, in units of nM, as a plain number.

-- ask What measured IC50 goes with O=C(NC[C@H](O)CN1CCc2ccccc2C1)c1ccnc(NC2CCC2)c1 [GSK3203591] ?
-- reply 206

----------
- System: panel of hematologic and solid cancer lines
- assayProtocol: 6-day in vitro growth/death assay
- Type: cell-based, human
- testConditions: SU-DHL-5; read-out: gIC50
propertyName: IC50 (µM)
Give the value, in units of µM, as a plain number.

-- ask What measured IC50 goes with O=C(NC[C@H](O)CN1CCc2ccccc2C1)c1ccnc(NC2CCC2)c1 [GSK3203591] ?
-- reply 0.132

----------
- Test system: panel of hematologic and solid cancer lines
- assayProtocol: 6-day in vitro growth/death assay
- Assay type: cell-based, human
- testConditions: Homo sapiens, ARH-77, ARH-77; read-out: gIC50
- Description: To further develop these molecules and to guide clinical strategy, it was necessary to understand sensitivity in preclinical models by assessing the anti-tumour activity of the PRMT5 inhibitors in various cancers. Cell lines were obtained from ATCC or DSMZ and were grown in recommended medium, which was most frequently RPMI-1640 containing 10% FBS. Cell line proliferation assays, Western blotting, qRT-PCR, and cell cycle analyses were performed as described previously[27],[28]. […]
propertyName: pIC50
Scale: pIC50 equals -log10([C]), with [C] in mol/L.

-- ask Enter reported pIC50 observed with panel of hematologic and solid cancer lines for O=C(NC[C@H](O)CN1CCc2ccccc2C1)c1ccnc(NC2CCC2)c1
-- reply 6.62

----------
- Tested on: panel of hematologic and solid cancer lines
- assayProtocol: 6-day in vitro growth/death assay
- Type: cell-based, human
- testConditions: Z-138; read-out: gIC50
propertyName: pIC50
Scale: pIC50 equals -log10([C]), with [C] in mol/L.

-- ask What measured pIC50 goes with O=C(NC[C@H](O)CN1CCc2ccccc2C1)c1ccnc(NC2CCC2)c1 [GSK3203591] ?
-- reply 7.85

----------
- Test system: panel of hematologic and solid cancer lines
- assayProtocol: 6-day in vitro growth/death assay
- Format: cell-based, human
- testConditions: Homo sapiens, COLO 205, Colo 205; read-out: gIC50
propertyName: IC50 (nM)
Give the value, in units of nM, as a plain number.

-- ask What measured IC50 goes with O=C(NC[C@H](O)CN1CCc2ccccc2C1)c1ccnc(NC2CCC2)c1 [GSK3203591] ?
-- reply 694
